- SYSTEM_NAME: mouse Mcl-1 with truncations of 151 amino acid residues at its N-terminus and 23 residues at its C-terminus (mouse) (UniProt P97287)
- Sequence (P97287 152-308): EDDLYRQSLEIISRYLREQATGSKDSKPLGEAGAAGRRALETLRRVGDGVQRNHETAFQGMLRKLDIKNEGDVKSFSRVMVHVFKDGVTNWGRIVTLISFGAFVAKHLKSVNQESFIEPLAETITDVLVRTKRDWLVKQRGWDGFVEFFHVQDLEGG
- ASSAY: competition phage ELISA
FLAG = FLAG tag
We begin with a simple list: items and their reported Fold/wt.

BINDER	Fold/wt (fold)
QEDIIRNIARHLAQVGDSMARSIPPG [Bid BH3 D20A, phage-displayed]	1
PASTMGQVGRQLAIIGDDINRRYDSE [Bak BH3 S2A, phage-displayed]	1
{FLAG}-RAELAPEFAAQLRKIGDKVYCTWSAP-{GGGT-g3(249-406)} [mNoxaA BH3 P5A, phage-displayed]	1
